PROTOCOL DESCRIPTION: chemical genetic growth profiling, strain panel (AID 1159580);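 also: tested at 20 µM; growth read once vehicle control cultures reached saturation at 30 °C; 1 = growth at the plate median or of vehicle wells; lower values mean less growth of the strain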
TEST CONDITIONS: S. cerevisiae deletion strains, growth OD, locus YDR195W, strain ref2
In all, about 5,500 compounds went through this assay and about 2,000 (36%) were called active. Not shown: some 18% with an inconclusive outcome. This is one part of the list.
For each of the compounds below, state its normalized growth.

                  compound  experimental_value
0  COc1ccc2[nH]cc(CCN)c2c1    0.951 (inactive)

Please state, for each entry, its recorded normalized growth.
1. CC1(C)CC[C@]2(C(=O)O)CC[C@]3(C)C(=CCC4[C@@]5(C)CC[C@H](O)[C@@](C)(CO)C5CC[C@]43C)C2C1 (some centres undefined)
2. CC(CC(=O)C(O)C(C)(C)O)C1C(=O)CC2(C)C3=CCC4C(C)(C)C(OC5OCC(O)C(O)C5O)CCC45CC35C(O)CC12C (centres undefined)
3. CC(=O)O[C@H]1CC[C@@]2(C)C(CC[C@]3(C)C2CC=C2C4CC(C)(C)CC[C@]4(C)CC[C@]23C)C1(C)C (some centres undefined)

(A)
["1.08 (inactive)", "0.987 (inactive)", "0.953 (inactive)"]
